Target: Histone deacetylase 1 (Homo sapiens, UniProt Q13547)
Sequence (Q13547 whole entry): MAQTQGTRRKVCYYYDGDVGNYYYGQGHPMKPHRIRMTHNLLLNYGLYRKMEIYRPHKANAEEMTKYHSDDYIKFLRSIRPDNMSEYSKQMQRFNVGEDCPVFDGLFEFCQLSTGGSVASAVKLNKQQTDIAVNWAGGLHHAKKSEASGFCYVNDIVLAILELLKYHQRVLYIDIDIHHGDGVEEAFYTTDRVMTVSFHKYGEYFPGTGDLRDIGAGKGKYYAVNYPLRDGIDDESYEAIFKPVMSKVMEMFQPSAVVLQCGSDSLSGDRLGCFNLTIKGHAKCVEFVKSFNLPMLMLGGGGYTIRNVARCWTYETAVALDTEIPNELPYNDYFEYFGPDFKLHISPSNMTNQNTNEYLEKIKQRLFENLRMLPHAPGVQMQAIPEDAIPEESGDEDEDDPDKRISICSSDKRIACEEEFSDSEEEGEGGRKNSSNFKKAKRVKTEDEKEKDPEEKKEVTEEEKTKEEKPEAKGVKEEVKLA
Assay: Inhibition of HDAC1 from human HeLa cells
Assay type: cell-based
pIC50: −log10 of the molar value.
metric: pIC50

{"compound": "CC(=O)CCCCC[C@H](NC(=O)C1CCN(C)C1)C(=O)NCCc1c(-c2ccccc2)[nH]c2ccccc12 (stereo partly drawn)", "readout.relation": "=", "test.value": 5.70}
{"compound": "CC(=O)CCCCC[C@H](NC(=O)C1CCCCN1C)C(=O)NCCc1c(-c2ccccc2)[nH]c2ccccc12 (stereo partly drawn)", "readout.relation": "=", "test.value": 5.60}
{"compound": "COc1ccc2[nH]c(C)c(CC(=O)N[C@@H](CCCCCC(C)=O)C(=O)NCCc3c(-c4ccccc4)[nH]c4ccccc34)c2c1", "readout.relation": "=", "test.value": 6.14}
{"compound": "CC(=O)CCCCC[C@H](NC(=O)c1cnns1)C(=O)NCCc1c(-c2ccccc2)[nH]c2ccccc12", "readout.relation": "=", "test.value": 5.47}
{"compound": "CC(=O)CCCCC[C@H](NC1CCCCN1C)C(=O)Nc1cccc(-c2ccccc2)c1 (stereo partly drawn)", "readout.relation": "=", "test.value": 6.30}
{"compound": "COc1ccc2[nH]c(C)c(CN[C@@H](CCCCCC(C)=O)C(=O)Nc3cccc(-c4ccccc4)c3)c2c1", "readout.relation": "=", "test.value": 6.64}
{"compound": "CC(=O)CCCCC[C@H](NC(=O)CCN1CCCCC1)C(=O)NCCc1c(-c2ccccc2)[nH]c2ccccc12", "readout.relation": ">", "test.value": 6.41}
{"compound": "CC(=O)CCCCC[C@H](NC(C)=O)C(=O)NCCc1c(-c2ccccc2)[nH]c2ccccc12", "readout.relation": "=", "test.value": 5.12}

----------
Reported IC50 values, Histone deacetylase 1 (Homo sapiens).

{"compound.structure": "O=C(Nc1ccc2cc(C(=O)NO)sc2c1)c1ccc2ccccc2c1", "IC50 [nM]": 79}
{"compound.structure": "Nc1ccccc1NC(=O)CCCCCCNC(=O)c1ccc(-c2ccccc2)nc1", "IC50 [nM]": 3000}
{"compound.structure": "O=C(CCCCCCC(=O)N1CCN(c2ccc(Cl)cc2)CC1)NO", "IC50 [nM]": 36.5}
{"compound.structure": "O=C(CCCCCCN(CCCc1ccccc1)CCc1ccccc1)NO", "IC50 [nM]": 159}

----------
Test system: HCT-116
Assay: Inhibition of human HCT116 cells
Type: functional, cell-based
# note: boundary value 800 nM maps to Not satisfied; IC50 below it maps to Satisfied

{"compound.structure": "COc1cc(NCc2ccc(/C=C/C(=O)Nc3ccccc3N)cn2)cc(OC)c1OC", "category": "Not satisfied"}
{"compound.structure": "Nc1ccccc1NC(=O)c1ccc(/C=C/C(=O)NCc2cccnc2)cc1", "category": "Satisfied"}
{"compound.structure": "COc1cc(CNc2ccc(/C=C/C(=O)Nc3ccccc3N)cn2)cc(OC)c1OC", "category": "Not satisfied"}
{"compound.structure": "COc1ccc(CNc2ccc(C(=O)Nc3ccccc3N)cn2)cc1", "category": "Satisfied"}
{"compound.structure": "COc1ccc(NCc2ccc(C(=O)Nc3ccccc3N)cc2)cc1OC", "category": "Satisfied"}
{"compound.structure": "COc1cc(NCc2ccc(/C=C/C(=O)Nc3ccccc3N)cc2)cc(OC)c1OC", "category": "Not satisfied"}
{"compound.structure": "COc1cc(NC/C=C/c2ccc(C(=O)Nc3ccccc3N)cc2)cc(OC)c1OC", "category": "Satisfied"}
{"compound.structure": "Nc1ccccc1NC(=O)c1ccc(Cn2c(=O)[nH]c3ccccc3c2=O)cc1", "category": "Satisfied"}

Source listed as ChEMBL document CHEMBL1142268.
